- experimentSummary: Permeability coefficient through artificial membrane in presence of unstirred water layer by PAMPA
# note: exactly 20 ×10⁻⁶ cm/s is not below, so it is false; use true for Papp strictly under it

Answered cases to consult:
CCC(C)c1ccccc1OC(=O)NC (configuration not stated) : true
CCOC(=O)c1ccccc1C(=O)OCC [DIETHYL PHTHALATE] : true
Nc1ccccc1[N+](=O)[O-] : false
O=[N+]([O-])c1cccc(O)c1 : true
CCN(CC)C(=O)SCc1ccc(Cl)cc1 : false
CCNc1nc(Cl)nc(NC(C)C)n1 : false
CC(C)OP(=O)(OC(C)C)SCc1ccccc1 : true
C=CCc1ccccc1OCC(O)CNC(C)C (configuration not stated) : true
O=[N+]([O-])c1cc(Cl)ccc1Cl : true
COc1ccc([C@@H]2Sc3ccccc3N(CCN(C)C)C(=O)[C@@H]2OC(C)=O)cc1 : true

is_below(Papp, 20 ×10⁻⁶ cm/s) for N#Cc1ccc(O)cc1 ?
true

is_below(Papp, 20 ×10⁻⁶ cm/s) for CC(C)(C)N(NC(=O)c1ccc(Cl)cc1)C(=O)c1ccccc1 [HALOFENOZIDE] ?
true
